biological target: Mitogen-activated protein kinase kinase kinase 3 (Homo sapiens) (UniProt Q99759); assay: modulators of MEKK3-MEK5 PB1 binding, primary screen, biochemical, wildtype MEKK3, multiplex bead flow cytometry, Alexa488-MEK5 (AID 1529); details: bead-based flow cytometry, Alexa488-MEK5 binding to MEKK3; at 10 µM; actives lie on both sides; 0 = blocked by unlabeled MEK5, 100 = vehicle;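 also: Alexa488 bead fluorescence after subtracting the streptavidin-only scavenger bead signal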
Sequence (Q99759 whole entry, looked up): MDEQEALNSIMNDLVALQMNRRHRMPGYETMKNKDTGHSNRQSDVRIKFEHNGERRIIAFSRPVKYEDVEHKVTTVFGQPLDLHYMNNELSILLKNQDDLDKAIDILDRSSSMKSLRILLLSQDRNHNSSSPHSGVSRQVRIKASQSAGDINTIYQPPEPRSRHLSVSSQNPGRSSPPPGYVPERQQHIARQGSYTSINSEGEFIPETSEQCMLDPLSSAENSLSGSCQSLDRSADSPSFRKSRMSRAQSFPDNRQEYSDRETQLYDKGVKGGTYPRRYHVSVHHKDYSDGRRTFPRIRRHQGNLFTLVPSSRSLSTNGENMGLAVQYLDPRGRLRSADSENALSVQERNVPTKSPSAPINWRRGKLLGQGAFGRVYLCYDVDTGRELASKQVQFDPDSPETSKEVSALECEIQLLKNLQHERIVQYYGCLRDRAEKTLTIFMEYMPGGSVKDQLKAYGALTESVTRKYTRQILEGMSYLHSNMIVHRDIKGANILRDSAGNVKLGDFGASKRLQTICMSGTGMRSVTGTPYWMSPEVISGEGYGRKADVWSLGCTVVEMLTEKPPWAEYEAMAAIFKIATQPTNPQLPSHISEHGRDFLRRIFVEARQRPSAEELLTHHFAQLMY
The campaign covered roughly 290,000 compounds. About 4,200 (1.4%) were called active.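 The calls were made as follows: active = binding response more than 3 SD above or below the average of its plate-row segment, actives on both sides; inconclusive = wells at one plate position flagged as instrument error; inactive = the rest.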 Shown is part of a subset that was picked to be rich in actives.
Parameter call: string, one of active, inactive

Worked examples, 4 compounds total:
Cc1cc(C)cc(NC(=O)CN2C(=O)c3ccccc3C2=O)c1 | inactive
Cc1ccccc1C(=O)NNC(=O)CN1C(=O)c2ccccc2C1=O | active
COc1ccccc1N1CCN(Cc2ccc(OC)c3ccccc23)CC1 | inactive
COc1cc(S(=O)(=O)Nc2ncn[nH]2)ccc1Cl | inactive

Shift focus to the following entry.
Could you please tell me the result logged for O=Cc1ccc(Oc2cccc(C(F)(F)F)c2)nc1 in this assay?
inactive
